Measured Span values are reported for all entries that follow.
Target: T1, human FAP (Homo sapiens, UniProt Q12884)
T1 sequence (Q12884 1-760): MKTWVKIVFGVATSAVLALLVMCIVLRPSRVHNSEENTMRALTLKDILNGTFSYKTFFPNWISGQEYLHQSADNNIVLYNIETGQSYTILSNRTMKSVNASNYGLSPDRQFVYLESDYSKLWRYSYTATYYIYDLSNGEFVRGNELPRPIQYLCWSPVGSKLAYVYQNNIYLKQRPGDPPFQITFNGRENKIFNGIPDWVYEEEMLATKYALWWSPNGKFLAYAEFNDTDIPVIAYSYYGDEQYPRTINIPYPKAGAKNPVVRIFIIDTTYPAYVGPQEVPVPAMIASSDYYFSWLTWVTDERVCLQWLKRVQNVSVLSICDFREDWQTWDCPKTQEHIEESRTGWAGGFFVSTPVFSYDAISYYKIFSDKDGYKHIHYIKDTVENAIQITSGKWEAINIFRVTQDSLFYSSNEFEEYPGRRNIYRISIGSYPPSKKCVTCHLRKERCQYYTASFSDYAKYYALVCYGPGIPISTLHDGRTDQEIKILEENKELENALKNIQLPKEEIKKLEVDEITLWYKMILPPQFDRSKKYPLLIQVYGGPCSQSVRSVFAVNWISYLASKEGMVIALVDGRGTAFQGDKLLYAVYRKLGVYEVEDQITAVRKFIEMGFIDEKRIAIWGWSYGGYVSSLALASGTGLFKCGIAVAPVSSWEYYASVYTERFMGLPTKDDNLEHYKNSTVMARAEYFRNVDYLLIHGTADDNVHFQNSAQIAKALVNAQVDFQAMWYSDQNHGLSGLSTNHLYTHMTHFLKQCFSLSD
Test: BLI click reaction with Tz-R3B23 on TCO-VHHs bound to target, span (Example 7, Table 18)
Conditions: Experiment 2, 1st assay, click reaction with 50 nM Tz-R3B23 for 30 minutes, signal difference vs assay buffer
measured.property: Span

1) VHH7: VHH, target FAP, SEQ ID NO 90 (protein) VHH: QVQLQESGGGLVQAGGSLRLSCTASGTFSGRNAMAWYRQAPGKRRELVAGIRSDDSTNYVDSVKGRFTISRDNAKNTVYLQMNSLRPEDTAVYYCNLWPPVIGAGFGSWGQGTQVTVSSAAAYPYDVPDYGSHHHHHH = 0.0018
2) TCO-VHH7 (conjugate, cyclised or stapled) VHH: QVQLQESGGGLVQAGGSLRLSCTASGTFSGRNAMAWYRQAPGKRRELVAGIRSDDSTNYVDSVKGRFTISRDNAKNTVYLQMNSLRPEDTAVYYCNLWPPVIGAGFGSWGQGTQVTVSSAAAYPYDVPDYGSHHHHHH = 0.0186
